Quick record: GI50, HCT-15.

Examples with answers:
- COMPOUND: "Cc1ccc(S(=O)(=O)OCC/C(=C\\[Si](C)(C)C)c2ccccc2)cc1"
  SUBJECT_OF_TEST: "HCT-15"
  GI50: "> 100 µM"
- COMPOUND: "CC1(C)COC(c2ccc(C(F)(F)F)cc2C(O)c2ccc3ccccc3c2)=N1 (configuration not stated)"
  SUBJECT_OF_TEST: "HCT-15"
  GI50: "> 10 µM"
- COMPOUND: "Clc1cc2nnn(C3CCCO3)c2cc1Cl (configuration not stated)"
  SUBJECT_OF_TEST: "HCT-15"
  GI50: "> 100 µM"
- COMPOUND: "CCc1c(OC(C)=O)c2c(NC3OCC(OC(C)=O)C(OC(C)=O)C3OC(C)=O)nc(SC)nc2oc1=O (configuration not stated)"
  SUBJECT_OF_TEST: "HCT-15"
  GI50: "> 100 µM"
- COMPOUND: "COc1ccc(C2C(=O)c3c(OC)cc(OC)cc3OC2c2cccnc2)cc1 (configuration not stated)"
  SUBJECT_OF_TEST: "HCT-15"
  GI50: "> 100 µM"
- COMPOUND: "CCCCNC(=O)C1=C(C)NC(C)=C(C(=O)NCCCC)C1"
  SUBJECT_OF_TEST: "HCT-15"
  GI50: "> 100 µM"

Exercise: # return GI50 for `CCOC(=O)c1c(SC(=O)c2ccc(C(C)(C)C)cc2)n(-c2ccccc2)c(=S)n(-c2ccccc2)c1=O` , test system: HCT-15
Solution: > 100 µM

Exercise: # return GI50 for COC(NC(N)=O)C(=O)O (configuration not stated) , test system: HCT-15
Solution: > 100 µM

Exercise: # return GI50 for `Cc1c2cc[n+](C)cc2c(C)c2c1oc1ccccc12` , test system: HCT-15
Solution: > 87.3 µM

Exercise: # return GI50 for `CSc1nc(SC)c2c(CN=[N+]=[N-])c(Br)n(Cc3ccccc3)c2n1` , test system: HCT-15
Solution: > 100 µM

Exercise: # return GI50 for `CSc1nc(C)cc(Nc2ccc(O)c(CN3CCOCC3)c2)n1` , test system: HCT-15
Solution: > 100 µM

Exercise: # return GI50 for `O=C1C=C/C(=N/c2ccccc2)c2ccccc21` , test system: HCT-15
Solution: 9.42 µM

---

tested on: NCI-H226; assay: NCI tumour cell line growth inhibition, 48 h
Structures can show the parent of a compound that is named as a salt. Calls of active or inactive are those of the source. Rule as the data show it: active = GI50 up to about 1.1 µM and inactive = higher.
Assign a class; possible classes are T for active, F for inactive

// below: answered molecules
- MOLECULE: "CCCC(=O)OC1C(CO)OC(n2cc(F)c(=O)[nH]c2=O)C1F (stereo not given)"
  SUBJECT_OF_TEST: "NCI-H226"
  CATEGORY_LABEL: "F"
- MOLECULE: "C[n+]1c2ccccc2c(CNC(CCC(N)=O)C(=O)O)c2ccccc21 (stereo not given)"
  SUBJECT_OF_TEST: "NCI-H226"
  CATEGORY_LABEL: "F"
- MOLECULE: "CC(=O)OCc1ccc2c(c1)C(O)NC(=O)O2 (stereo not given)"
  SUBJECT_OF_TEST: "NCI-H226"
  CATEGORY_LABEL: "F"

Exercise: Dear all, I need the recorded test outcome for `CCCc1c(OC)c(=O)c2c(O)cc(OC)c3c4c(OC)cc(O)c5c(=O)c(OC)c(CCC)c(c1c23)c54` , thank you.
Solution: F

Exercise: Dear all, I need the recorded test outcome for COc1cc(O)c2c(c1)OCC1(Cc3cc(OC)c(OC)cc31)C2=O (stereo not given) , thank you.
Solution: F

Exercise: Dear all, I need the recorded test outcome for `CC(=O)O[C@H]1C(=O)[C@@]2(C)[C@H]([C@H](OC(=O)c3ccccc3)[C@]3(O)C[C@H](OC(=O)[C@H](O)[C@@H](NC(=O)c4ccccc4)c4ccccc4C)C(C)=C1C3(C)C)[C@]1(OC(C)=O)CO[C@@H]1C[C@@H]2O` , thank you.
Solution: F

Exercise: Dear all, I need the recorded test outcome for `CCN(CC)c1c(-c2c(OC(C)C)c(=O)c2=O)c(=O)n2ccsc2c1OC(C)=O` , thank you.
Solution: F

Exercise: Dear all, I need the recorded test outcome for `Cc1cc2c(cc1Cl)SC(NNc1ccc([N+](=O)[O-])cc1)=NS2(=O)=O` , thank you.
Solution: F

Exercise: Dear all, I need the recorded test outcome for `CS(=O)(=O)Nc1ccc(NCc2c[nH]c3ccc4ncccc4c23)cc1` , thank you.
Solution: F

Exercise: Dear all, I need the recorded test outcome for `Cc1ccc(Nc2nc3[nH]ccc3c(=O)[nH]2)cc1` , thank you.
Solution: F

Exercise: Dear all, I need the recorded test outcome for COc1ccc2c(c1)O[C@@H]1[C@@H](OC3OC(CO)C(O)C(O)C3O)Oc3cc(OC)c(OC)cc3[C@]1(O)C2=O (stereo not given in full) , thank you.
Solution: F

Exercise: Dear all, I need the recorded test outcome for Cn1ccnc1CC(C)(O)c1ccccc1 (stereo not given) , thank you.
Solution: F

Exercise: Dear all, I need the recorded test outcome for `COC(=O)/C=C\C(C#N)(C#N)/N=C/c1ccc(OC)cc1` , thank you.
Solution: F

Exercise: Dear all, I need the recorded test outcome for CC(=O)N(O)CCCCCNC(=O)CCC(=O)N(O)CCCCCNC(=O)CCC(=O)N(O)CCCCCN [DEFEROXAMINE HYDROCHLORIDE] , thank you.
Solution: F

Exercise: Dear all, I need the recorded test outcome for `O=C(N/N=C/c1cccc(F)c1)c1ccncc1` , thank you.
Solution: T

Exercise: Dear all, I need the recorded test outcome for O=C(O)C12C3CCC(O3)C1(C(=O)O)C1CCC2O1 (stereo not given) , thank you.
Solution: F

Exercise: Dear all, I need the recorded test outcome for `O=C(Oc1cccc2cccnc12)c1cc2cc(CCl)ccc2oc1=O` , thank you.
Solution: F

Exercise: Dear all, I need the recorded test outcome for CC(=O)Oc1ccc(OC(Oc2ccccc2)c2ccccc2)cc1 (stereo not given) , thank you.
Solution: F

Exercise: Dear all, I need the recorded test outcome for `O=C1/C(=C/c2ccccc2)CCCC/C1=C\c1ccccc1` , thank you.
Solution: F

Exercise: Dear all, I need the recorded test outcome for `CSc1nc(SC)c2c(CN=[N+]=[N-])c(Br)n(Cc3ccccc3)c2n1` , thank you.
Solution: F

Exercise: Dear all, I need the recorded test outcome for C=C(C)C(=O)N1c2ccc(OC)cc2CC1C(=O)OCC (stereo not given) , thank you.
Solution: F

Exercise: Dear all, I need the recorded test outcome for `O=c1c2ccccc2n2nnc3ccc(NCCCNCCNCCCNc4ccc5nnn6c7ccccc7c(=O)c4c56)c1c32` , thank you.
Solution: T

Exercise: Dear all, I need the recorded test outcome for CCCOc1nc(N)c2cnn(C3CCCCO3)c2n1 (stereo not given) , thank you.
Solution: F

Exercise: Dear all, I need the recorded test outcome for `COC(=O)c1nn(C(=N)c2ccc(Cl)cc2)c2c1CCC2` , thank you.
Solution: F

Exercise: Dear all, I need the recorded test outcome for `CCOc1ccc(-n2c(=O)n3c(Nc4ccc(Cl)cc4)nc4c(c(=O)n(C)c(=O)n4C)n3c2=O)cc1` , thank you.
Solution: F
